assay.comment: chemical genetic growth profiling, strain panel (AID 1159580);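 also: tested at 20 µM; growth read once vehicle control cultures reached saturation at 30 °C; 1 = growth at the plate median or of vehicle wells; lower values mean less growth of the strain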
condition.label: S. cerevisiae deletion strains, growth OD, locus YDR162C, strain NBP2
About 2,000 (36%) of roughly 5,500 compounds were called active. About 18% were inconclusive and are not listed. Rule as the data show it: active = normalized growth mostly below about 0.91 (no sharp cut-off); inconclusive = no clear call, values can overlap the other calls; inactive = mostly above about 0.92. The list shows a part of the results.
Possible outcomes: class 1 = active, class 0 = inactive

1. OCc1ccccc1O[C@@H]1O[C@H](CO)[C@@H](O)[C@H](O)[C@H]1O :: class 0
2. Cc1ccc(C(=O)C(C)CN2CCCCC2)cc1 (stereo unspecified) :: class 0
3. CCCCCC(=O)O[C@]1(C(C)=O)CCC2C3CCC4=CC(=O)CC[C@]4(C)C3CC[C@@]21C (stereo partly specified) :: class 0
4. CCCCOc1ccc(C(=O)CCN2CCCCC2)cc1 :: class 1
5. CC(=O)[C@H]1CCC2C3C[C@H](C)C4=CC(=O)CC[C@]4(C)C3[C@@H](O)C[C@@]21C (stereo partly specified) :: class 0
6. CN=C(NC#N)NCCSCc1nc[nH]c1C :: class 0
7. Oc1ccc(O)cc1 :: class 0
8. O=[N+]([O-])O[C@H]1CO[C@H]2[C@@H]1OC[C@H]2O[N+](=O)[O-] :: class 0
9. CC(=O)O[C@]1(C(C)=O)CCC2C3C=C(C)C4=CC(=O)CCC4(C)C3CCC21C (stereo partly specified) :: class 1
10. C/C=C(/C(=C/C)c1ccc(O)cc1)c1ccc(O)cc1 :: class 1
11. O=C(O)c1ccccc1OP(=O)(O)O :: class 0
